- ASSAY CONTEXT: in n-butanol, 303.15 K
REPORTED PROPERTY: solubility (mole fraction)

Item COc1cc([N+](=O)[O-])ccc1N has what recorded solubility (mole fraction)? 0.00371

---

- ASSAY CONTEXT: in n-propanol, 308.15 K
REPORTED PROPERTY: solubility (mole fraction)
Numbers only.

Item COc1cc([N+](=O)[O-])ccc1N has what recorded solubility (mole fraction)? 0.00616

---

- ASSAY CONTEXT: in water, 318.15 K
REPORTED PROPERTY: solubility (mole fraction)
Answers are plain numbers.

Item COc1cc([N+](=O)[O-])ccc1N has what recorded solubility (mole fraction)? 4.2e-05

---

- ASSAY CONTEXT: in ethylene glycol, 303.15 K
REPORTED PROPERTY: solubility (mole fraction)
Numbers only.

Item COc1cc([N+](=O)[O-])ccc1N has what recorded solubility (mole fraction)? 0.00424

---

- ASSAY CONTEXT: in ethanol, 313.15 K
REPORTED PROPERTY: solubility (mole fraction)
Answers are plain numbers.

Item COc1cc([N+](=O)[O-])ccc1N has what recorded solubility (mole fraction)? 0.00978

---

- ASSAY CONTEXT: in n-butanol, 318.15 K
REPORTED PROPERTY: solubility (mole fraction)
Numbers only.

Item COc1cc([N+](=O)[O-])ccc1N has what recorded solubility (mole fraction)? 0.0072

---

- ASSAY CONTEXT: in ethyl acetate, 298.15 K
REPORTED PROPERTY: solubility (mole fraction)
Give bare numbers.

Item COc1cc([N+](=O)[O-])ccc1N has what recorded solubility (mole fraction)? 0.0398

---

- ASSAY CONTEXT: in n-butanol, 278.15 K
REPORTED PROPERTY: solubility (mole fraction)
Answers are plain numbers.

Item COc1cc([N+](=O)[O-])ccc1N has what recorded solubility (mole fraction)? 0.00135

---

- ASSAY CONTEXT: in n-propanol, 293.15 K
REPORTED PROPERTY: solubility (mole fraction)
Give bare numbers.

Item COc1cc([N+](=O)[O-])ccc1N has what recorded solubility (mole fraction)? 0.0035

---

- ASSAY CONTEXT: in water, 323.15 K
REPORTED PROPERTY: solubility (mole fraction)
Give bare numbers.

Item COc1cc([N+](=O)[O-])ccc1N has what recorded solubility (mole fraction)? 5.5e-05

---

- ASSAY CONTEXT: in n-propanol, 323.15 K
REPORTED PROPERTY: solubility (mole fraction)
One number for each entry.

Item COc1cc([N+](=O)[O-])ccc1N has what recorded solubility (mole fraction)? 0.0104

---

- ASSAY CONTEXT: in ethyl acetate, 323.15 K
REPORTED PROPERTY: solubility (mole fraction)

Item COc1cc([N+](=O)[O-])ccc1N has what recorded solubility (mole fraction)? 0.103

---

- ASSAY CONTEXT: in n-butanol, 308.15 K
REPORTED PROPERTY: solubility (mole fraction)

Item COc1cc([N+](=O)[O-])ccc1N has what recorded solubility (mole fraction)? 0.00457

---

- ASSAY CONTEXT: in acetonitrile, 308.15 K
REPORTED PROPERTY: solubility (mole fraction)
Give bare numbers.

Item COc1cc([N+](=O)[O-])ccc1N has what recorded solubility (mole fraction)? 0.0433
